These data points were gathered from patent US6753348B2.

Tgt: JAK3 (Homo sapiens, UniProt P52333)
Sequence (P52333 whole entry, species assumed): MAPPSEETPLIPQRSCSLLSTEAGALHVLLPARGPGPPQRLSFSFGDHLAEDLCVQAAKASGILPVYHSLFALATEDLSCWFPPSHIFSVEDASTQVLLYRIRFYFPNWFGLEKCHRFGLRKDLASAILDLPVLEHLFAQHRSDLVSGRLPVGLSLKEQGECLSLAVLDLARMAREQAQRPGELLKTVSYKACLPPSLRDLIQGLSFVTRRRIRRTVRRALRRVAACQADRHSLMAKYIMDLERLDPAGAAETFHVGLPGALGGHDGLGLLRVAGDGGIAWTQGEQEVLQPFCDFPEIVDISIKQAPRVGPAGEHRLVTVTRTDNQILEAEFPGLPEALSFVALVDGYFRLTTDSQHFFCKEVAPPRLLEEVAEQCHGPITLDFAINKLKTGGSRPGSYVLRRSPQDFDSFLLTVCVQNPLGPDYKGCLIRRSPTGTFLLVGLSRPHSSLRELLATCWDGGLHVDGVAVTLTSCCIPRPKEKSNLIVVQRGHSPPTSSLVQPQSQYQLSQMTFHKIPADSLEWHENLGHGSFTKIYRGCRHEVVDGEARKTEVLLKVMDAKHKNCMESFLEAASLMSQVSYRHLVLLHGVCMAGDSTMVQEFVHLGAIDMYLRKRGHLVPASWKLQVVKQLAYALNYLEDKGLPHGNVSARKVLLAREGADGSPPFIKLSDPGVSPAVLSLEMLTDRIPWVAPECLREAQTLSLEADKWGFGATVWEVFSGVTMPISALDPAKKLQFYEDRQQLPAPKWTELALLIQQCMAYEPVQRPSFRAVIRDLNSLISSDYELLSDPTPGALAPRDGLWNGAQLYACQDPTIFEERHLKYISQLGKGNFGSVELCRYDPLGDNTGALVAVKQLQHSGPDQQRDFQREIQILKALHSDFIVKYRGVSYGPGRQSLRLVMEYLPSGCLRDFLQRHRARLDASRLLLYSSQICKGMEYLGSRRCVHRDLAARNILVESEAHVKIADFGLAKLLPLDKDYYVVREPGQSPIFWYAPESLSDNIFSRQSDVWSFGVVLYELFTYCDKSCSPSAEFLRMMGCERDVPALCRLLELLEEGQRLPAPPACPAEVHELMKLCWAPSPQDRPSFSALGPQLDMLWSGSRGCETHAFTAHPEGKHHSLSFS
Protocol notes: Cell-free tyrosine kinase inhibition assay JAK3
Type: biochemical
pIC50: −log10 of the molar value.
Observed property: pIC50

1. C/C(O)=C(\C#N)C(=O)Nc1cc(Br)ccc1Br	< 3.56

====

Tgt: EGF-Receptor Kinase (EGFR) (Homo sapiens, UniProt P00533)
Sequence (P00533 25-1210, species assumed): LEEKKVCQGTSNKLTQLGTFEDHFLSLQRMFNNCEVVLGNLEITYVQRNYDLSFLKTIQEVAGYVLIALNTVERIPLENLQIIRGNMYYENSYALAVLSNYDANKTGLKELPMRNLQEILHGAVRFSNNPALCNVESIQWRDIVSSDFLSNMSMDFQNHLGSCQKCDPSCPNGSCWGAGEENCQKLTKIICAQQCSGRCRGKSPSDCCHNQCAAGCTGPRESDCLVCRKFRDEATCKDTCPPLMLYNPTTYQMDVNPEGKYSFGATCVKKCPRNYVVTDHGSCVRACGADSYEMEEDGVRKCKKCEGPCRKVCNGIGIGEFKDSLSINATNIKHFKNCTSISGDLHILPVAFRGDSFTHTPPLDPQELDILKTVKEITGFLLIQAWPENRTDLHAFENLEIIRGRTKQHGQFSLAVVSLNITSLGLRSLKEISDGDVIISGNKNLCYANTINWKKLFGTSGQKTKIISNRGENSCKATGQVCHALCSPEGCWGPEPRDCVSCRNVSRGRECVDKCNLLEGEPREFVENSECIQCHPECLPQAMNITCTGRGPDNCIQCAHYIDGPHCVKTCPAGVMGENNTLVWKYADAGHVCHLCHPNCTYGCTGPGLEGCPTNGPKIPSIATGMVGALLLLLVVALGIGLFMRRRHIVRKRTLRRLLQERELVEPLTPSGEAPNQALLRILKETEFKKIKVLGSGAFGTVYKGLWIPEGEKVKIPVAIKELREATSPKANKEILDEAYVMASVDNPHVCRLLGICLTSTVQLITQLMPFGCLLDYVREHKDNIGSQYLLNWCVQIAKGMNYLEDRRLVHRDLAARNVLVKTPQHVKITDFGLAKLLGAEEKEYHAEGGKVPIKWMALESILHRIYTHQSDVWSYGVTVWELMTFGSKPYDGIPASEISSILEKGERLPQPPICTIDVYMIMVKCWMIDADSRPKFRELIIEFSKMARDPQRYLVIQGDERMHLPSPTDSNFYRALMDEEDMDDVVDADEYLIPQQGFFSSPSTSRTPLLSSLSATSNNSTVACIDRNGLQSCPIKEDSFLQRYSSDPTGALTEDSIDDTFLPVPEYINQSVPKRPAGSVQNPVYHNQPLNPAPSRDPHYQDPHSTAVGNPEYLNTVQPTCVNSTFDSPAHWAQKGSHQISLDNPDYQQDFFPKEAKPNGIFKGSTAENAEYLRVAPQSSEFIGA
Protocol notes: Cell-free tyrosine kinase inhibition assay EGFR
Type: biochemical
Test parameters: EGFR
Observed property: IC50

1) C/C(O)=C(\C#N)C(=O)Nc1cc(Br)ccc1Br [LFM-A13]	> 278 µM

====

Tgt: HCK (Homo sapiens, UniProt P08631)
Sequence (P08631 whole entry, species assumed): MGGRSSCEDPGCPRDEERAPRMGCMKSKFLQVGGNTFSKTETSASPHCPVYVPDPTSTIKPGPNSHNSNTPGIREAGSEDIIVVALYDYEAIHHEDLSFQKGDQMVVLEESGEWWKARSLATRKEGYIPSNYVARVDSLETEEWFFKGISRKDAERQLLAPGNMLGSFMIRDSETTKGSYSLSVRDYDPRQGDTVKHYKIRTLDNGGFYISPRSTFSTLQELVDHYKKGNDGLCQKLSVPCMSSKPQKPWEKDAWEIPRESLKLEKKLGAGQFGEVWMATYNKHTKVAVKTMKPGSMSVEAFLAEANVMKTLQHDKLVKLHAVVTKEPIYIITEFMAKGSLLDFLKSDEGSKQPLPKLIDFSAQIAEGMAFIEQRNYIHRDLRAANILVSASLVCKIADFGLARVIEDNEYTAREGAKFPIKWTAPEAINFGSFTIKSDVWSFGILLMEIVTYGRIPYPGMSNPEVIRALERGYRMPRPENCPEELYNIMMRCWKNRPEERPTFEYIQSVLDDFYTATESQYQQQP
Observed property: IC50

1. C/C(O)=C(\C#N)C(=O)Nc1cc(Br)ccc1Br	> 278 µM

====

Observed property: melting point

1) CC(O)=C(C#N)C(=O)Nc1cccc(F)c1	136 to 138 °C
2) CC(O)=C(C#N)C(=O)Nc1cccc(C(F)(F)F)c1	182 to 184 °C
3) CC(O)=C(C#N)C(=O)Nc1ccc(Cl)cc1	209 to 211 °C
4) CC(O)=C(C#N)C(=O)Nc1ccc(F)cc1	165 to 166 °C
5) CC(O)=C(C#N)C(=O)Nc1cccc(Br)c1	184 to 185 °C
6) C/C(O)=C(\C#N)C(=O)Nc1ccc(Br)cc1Br	181 °C
7) CC(O)=C(C#N)C(=O)Nc1ccccc1	134 to 135 °C
8) CC(O)=C(C#N)C(=O)Nc1cccc(Cl)c1	184 to 187 °C
9) C/C(O)=C(\C#N)C(=O)Nc1ccc(OC(F)(F)F)c(Br)c1	178 to 179 °C
10) CC(O)=C(C#N)C(=O)Nc1ccccc1C(F)(F)F	61 to 63 °C
11) CC(O)=C(C#N)C(=O)Nc1ccc(OC(F)(F)F)cc1	182 to 183 °C
12) C/C(O)=C(\C#N)C(=O)Nc1ccc(S(C)(=O)=O)cc1	205 to 206 °C
13) C/C(O)=C(\C#N)C(=O)Nc1cc(Cl)ccc1Cl	143 to 144 °C
14) C/C(O)=C(\C#N)C(=O)Nc1cccc(S(C)(=O)=O)c1	213 to 214 °C
15) CC(O)=C(C#N)C(=O)Nc1ccccc1Br	98 to 100 °C
16) CC(O)=C(C#N)C(=O)Nc1ccccc1Cl	93 to 94 °C
17) CC(O)=C(C#N)C(=O)Nc1ccccc1F	118 to 119 °C
18) CC(O)=C(C#N)C(=O)Nc1ccc(Br)cc1	213 to 214 °C
19) C/C(O)=C(\C#N)C(=O)Nc1ccc(Cl)cc1Cl	143 to 144 °C

====

Target or system BTK (Mus musculus, UniProt P35991); recorded quantity IC50.
Observed property: IC50

1) CCCc1cc(=O)oc2c(C(=O)CC)c(OC)cc(OC)c12 [DDE229]	> 329 µM
2) CCCc1cc(=O)oc2c(C(=O)c3ccccc3)c(O)cc(O)c12 [DDE355]	> 308 µM
3) CCCc1cc(=O)oc2c(C(C)=O)c(O)cc(O)c12 [DDE271]	> 381 µM
4) CCCc1cc(=O)oc2c(C(=O)C(C)C)c(O)cc(O)c12 [DDE272]	> 344 µM
5) CCCc1cc(=O)oc2cc(O)cc(O)c12 [DDE181]	< 45.4 µM
